Just for reference, the supplement of paper PMC10567573 is where these values come from.

B1: NCF4 (parent)
chain: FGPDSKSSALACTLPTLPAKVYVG

- Variants of: B1
- measurement_notes: protein stability index of a GFP-peptide fusion (GPS, HEK-293T) (PSI 1-6); higher = more stable;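 note: lentivirally expressed fusions sorted by FACS into six bins by GFP to DsRed ratio, PSI derived from sequencing read proportions per bin multiplied by bin number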
- condition_notes: c terminus: a fixed tail appended
measurement_type: protein stability index
Numbers only.

Reference set (10 entries):
P15D
1.53
P3A
2.45
K6M
2.89
K20T
1.98
A11H
2.23
S8E
3.36
K6E
2.54
P3C
2.04
P3Q
3.09
T13W
3.59

Would you mind giving protein stability index for every variant in the list below?
1. Y22V
2. V21Y
3. A19Y
4. C12A
5. P3S
6. L10H
7. L17K
8. G2K

Solution:
[2.37, 2.1, 1.95, 2.87, 2.35, 2.88, 2.54, 3.02]

Below are 7 variants. Give each one its protein stability index.
1. P3N
2. S5V
3. K6P
4. D4L
5. L17H
6. T13Q
7. K6W

Solution:
2.21
2.46
2.33
2.15
2.09
2.19
3.06

Hi! Can you tell me protein stability index for each of these variants?
1. L14S
2. A9I
3. V23H
4. S5E
5. V21A

Solution:
[2.86, 1.86, 3.06, 3.13, 2.71]
